- test-protocol: BSK_3C_Vis: BioMAP Diversity Plus: 3C Assay for Morphology Visualization (AID 2283025);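 note: fitted both ways so gain or loss versus DMSO counts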;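 for AC50: light microscopy image of cell morphology used as background control; cells imaged 24 h after dosing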
- measurement-context: primary human endothelial cells (HUVEC)
Calls of active or inactive are those of the source. Rule for the calls: active = hit-call score of the fitted dose curve at least 0.9, where 1 is the maximum; inactive = score below 0.9.
measured-attribute: AC50

Please review the entries below; each comes with its answer.
Look at this compound and give its reported AC50. CC(C)CCCCCOC(=O)CS
inactive

Same read-out for O=C(Cl)c1c(Cl)c(Cl)c(C(=O)Cl)c(Cl)c1Cl ?
inactive

Another compound to check: c1ccc2sc(SSN3CCOCC3)nc2c1
8.8 µM (active)

Next entry: c1ccc2c(c1)[nH]c1ccccc12
inactive

Entry C=CC(=O)NC(C)(C)C please
inactive

---
Look up AC50 for this compound: CCOC(=O)C1=NOC(c2ccccc2)(c2ccccc2)C1
inactive

Queued: CCCCCCCCC(CO)CCCCCC (stereo not given)
inactive

Please give the result for C=C(C)C(=O)OCCCCCCCCCCCC too.
inactive

// repeat for CCCCCCCO and report
inactive

Now give it for C=CC(=O)OCC(C)OCC(C)OCC(C)OC(=O)C=C (stereo not given) too.
16 µM (active)

====

- Read-out: Interleukin-1 alpha (IL1a), IL1A (gene 3552)
- test-protocol: BSK_BE3C_IL1a: BioMAP Diversity Plus: BE3C Assay for Interleukin-1 alpha (IL1a) Biomarker Activity (AID 2283016)
- measurement-context: primary human bronchial epithelial cells; actives raise or lower the signal
Active and inactive are the calls of the source. How the source made its calls: active means hit-call score of the fitted dose curve at least 0.9, where 1 is the maximum; inactive means score below 0.9.
measured-attribute: AC50

Examples with their reported AC50 follow.
What does the data say about its AC50? Entry: CCCCCCCCC(CO)CCCCCC (configuration not stated)
inactive

# iterate: Cc1ccc([N+](=O)[O-])cc1N
inactive

What about CC/C=C\CCOC(=O)c1ccccc1O ?
inactive

Item: Cc1c(O)cccc1O
inactive

Oc1ccccc1Cc1ccccc1O ?
inactive

Consider next the compound CCCCCCCCCCCC(C)=O in the same way.
20 µM (active)

Consider next the compound C=CC(=O)OCCCCCCCC(C)C in the same way.
0.719 µM (active)

And for CC=C(C)C(C)=O ?
inactive

How about this compound: CC(C)c1cccc(C(C)C)c1N
inactive

// query: O=C(O)C(F)(F)C(F)(F)C(F)(F)C(F)(F)C(=O)O
inactive

Next:
Name the reported AC50 value associated with the compound Oc1c(Cl)cc(Cl)c(Cl)c1Cl
29.2 µM (active)

CCCCCC1=CCCC1=O ?
inactive

====

- test-protocol: BSK_3C_TissueFactor: BioMAP Diversity Plus: 3C Assay for Tissue Factor Biomarker Activity (AID 2282997)
- measurement-context: BioMAP 3C HUVEC, tissue factor biomarker readout; actives raise or lower the signal
Calls of active or inactive are those of the source. How the source made its calls: active means hit-call score of the fitted dose curve at least 0.9, where 1 is the maximum; inactive means score below 0.9.
The reply should name one outcome from active, inactive

Check the results log: what was the call for CC(C)CCCCCOC(=O)CS ?
inactive

---
Test call, this compound: CCCCCC1=CCCC1=O
inactive

Another compound to check: C=C(C)C(=O)OCCCCCCCCCCCC
inactive

Moving on to the next compound: CC(Cl)COP(=O)(OCC(C)Cl)OCC(C)Cl (stereo unspecified)
inactive

Likewise for CC/C=C\C/C=C\C/C=C\CCCCCCCC(=O)OC ?
active

Next record, please: CC(C)C(=O)OCCc1ccccc1
inactive

Proceed to CCCCCCCO
inactive

And Nc1nc(N)nc(-c2ccccc2)n1 ?
inactive

Next: C=CC(=O)OCC(C)OCC(C)OCC(C)OC(=O)C=C (stereo unspecified)
active

Field entry: CCOC(=O)C1=NN(c2ccc(Cl)cc2Cl)C(C)(C(=O)OCC)C1 (stereo unspecified)
inactive

Here is the next compound: C=CC(=O)NC(C)(C)C
inactive

The reported numbers originate from PubChem BioAssay (EPA / NIEHS).
